Assay: qHTS RealTime-Glo MT Cell Viability Assay in HepG2 cells - 40 hour (AID 1224870); further: nearly all actives have a fitted effect of over 50% in size
Settings: RealTime-Glo luminescence; series mostly up to 76.8 µM
Excerpt: National Center for Advancing Translational Sciences [NCATS] NIH Chemical Genomics Center [NCGC] U.S. Environmental Protection Agency [EPA] National Institutes of Environmental Health Sciences [NIEHS] National Toxicology Program [NTP] U.S. Food and Drug Administration [FDA] Measure of cell viability is critical in the cell-base assay. Analysis of cell viability is necessary for the characterization of cell responses to cytotoxic drugs and environmental stress. […]
Inconclusive results are not listed. The source made the active and inactive calls. The call rests on the fitted dose curve; in most records, active means well fitted cell-killing curve with a large enough effect in the repeat runs; inconclusive means weak or mixed curves, or effect the other way; inactive means flat fitted curve, though single readings scatter.
Form entry, call: pick from active, inactive

Some solved cases for reference:
| compound | category |
| --- | --- |
| FC(F)(F)c1cccc(Cl)c1 | inactive |
| COc1cccc(OC)c1C(=O)O | inactive |
| CCCCCc1ccc(Cl)cc1 | inactive |
| CCCCCCCCCCCC(=O)OCC(C)OC(=O)CCCCC(=O)O (configuration not stated) | inactive |
| O=c1c(O)c(-c2ccc(O)cc2O)oc2cc(O)cc(O)c12 | inactive |
| CCCCCCCC | inactive |
| CC[N+](CC)(CC)CCOc1ccc(/C=C/c2ccccc2)cc1 | active |
| CN(C)CCN1CCN(c2cccc(Cl)c2)C1=O | inactive |
| CC(C)(C)c1csc(-c2cc3cc(OCc4ccccc4CC(=O)O)ccc3o2)n1 | inactive |
| Cc1cc(-c2ccc(N=Nc3cc(S(=O)(=O)O)c4ccccc4c3N)c(C)c2)ccc1N=Nc1cc(S(=O)(=O)O)c2ccccc2c1N | inactive |

input: Answer briefly: the call reported for `COCCOc1cc2cc(C(=O)NC3CCN(C(C)C)CC3)n(CC(=O)Nc3ccc(Cl)cn3)c2cn1` in this assay.
output: inactive

input: Do the same for `COC(=O)Nc1nc2ccc(C(=O)c3ccccc3)cc2[nH]1` please
output: inactive

---

Molecular target: Peroxisome proliferator-activated receptor delta (Homo sapiens)
Assay: qHTS assay to identify small molecule antagonists of the peroxisome proliferator-activated receptor delta (PPARd) signaling pathway (AID 743215);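 further: cells stimulated with agonist L165041 at 300 nM final during compound exposure; on the % scale 0 is the no-effect control and ±100 the full control effect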
Settings: HEK293H PPARd-UAS-bla, beta-lactamase FRET ratio, antagonist, 17 h; series mostly up to 62 µM
Records with an inconclusive call do not appear. Activity calls are given as the source filed them. The call rests on the fitted dose curve; in most records, active means well fitted inhibition curve with a large enough effect in the signal ratio in the repeat runs (not every such curve was filed as active); inconclusive means weak or mixed curves, or effect the other way; inactive means no such curve, though single readings can be large or run the other way; the % refers to the signal ratio.
Form entry, call: pick from 1.0 for active, 0.0 for inactive

Some solved cases for reference:
| compound | assayed target | category |
| --- | --- | --- |
| O=C(O)Cc1ccc2c(c1)C(=O)c1ccccc1CO2 | Peroxisome proliferator-activated receptor delta (Homo sapiens) | 0.0 |
| Clc1sc(Cl)c(Cl)c1Cl | Peroxisome proliferator-activated receptor delta (Homo sapiens) | 0.0 |
| O=C1CCCCCCCCCCCCCCCO1 | Peroxisome proliferator-activated receptor delta (Homo sapiens) | 0.0 |
| CC1(C)CCC[C@]2(C)[C@H]3CCO[C@]3(C)CC[C@@H]12 | Peroxisome proliferator-activated receptor delta (Homo sapiens) | 0.0 |
| O=C(/C=C/c1ccccc1)OC/C=C/c1ccccc1 | Peroxisome proliferator-activated receptor delta (Homo sapiens) | 0.0 |
| O=C(O)[C@H](O)[C@@H](O)[C@H](O[C@@H]1O[C@H](CO)[C@H](O)[C@H](O)[C@H]1O)[C@H](O)CO | Peroxisome proliferator-activated receptor delta (Homo sapiens) | 0.0 |

Next, consider the following compound.
input: Answer briefly: the call reported for `CCCCCCCCCCC[C@@H](C[C@@H]1OC(=O)[C@H]1CCCCCC)OC(=O)[C@H](CC(C)C)NC=O` in this assay.
output: 0.0

Measured values drawn from PubChem BioAssay (Tox21) for this set.
